Tested on: LXF-289
Assay procedure: Cytotoxicity on human cancer cells in tissue culture, crystal violet staining
Format: cell-based
Recorded conditions: LXF-289, pH 7.4, 2 h incubation, mean of four assays
// values below are reported IC50
Quantity measured: IC50

>>> endpoint_value("CCOC(=S)[S][Pt][S]C(=S)OCC")
"91 µM"
>>> endpoint_value("CC(C)OC(=S)[S][Pt][S]C(=S)OC(C)C")
"30 µM"
>>> endpoint_value("N.N.[Cl][Pt][Cl] [Cisplatin, cis-dichloro-diammine-platinum(II)]")
"83 µM"

* * *

System: KB
Assay procedure: Cytotoxicity on human cancer cells in tissue culture, crystal violet staining
Assay type: cell-based
Recorded conditions: pH 6.8
pIC50: −log10 of the molar value.
Quantity measured: pIC50

>>> endpoint_value("COC(=S)[S][Pt][S]C(=S)OC [r1]")
4.70

* * *

Test system: Calu-6
Assay procedure: Cytotoxicity on human cancer cells in tissue culture, crystal violet staining
Format: cell-based
Recorded conditions: Calu-6, pH 7.4, 2 h incubation, mean of four assays
Quantity measured: IC50 (µM)

>>> endpoint_value("N.N.[Cl][Pt][Cl] [Cisplatin, cis-dichloro-diammine-platinum(II)]")
25
>>> endpoint_value("CC(C)OC(=S)[S][Pt][S]C(=S)OC(C)C")
10
>>> endpoint_value("CCOC(=S)[S][Pt][S]C(=S)OCC")
24

* * *

Test system: MCF-7
Assay procedure: Cytotoxicity on human cancer cells in tissue culture, crystal violet staining
Type: cell-based
Recorded conditions: pH 7.4
Quantity measured: IC50 (µM)

>>> endpoint_value("COC(=S)[S][Pt][S]C(=S)OC [r1]")
19

* * *

Tested on: KB
Assay procedure: Cytotoxicity on human cancer cells in tissue culture, crystal violet staining
Assay type: cell-based
Recorded conditions: KB, pH 7.4, 2 h incubation, mean of four assays
# key: entry, value: IC50
Quantity measured: IC50 (µM)

>>> endpoint_value("N.N.[Cl][Pt][Cl] [Cisplatin, cis-dichloro-diammine-platinum(II)]")
52
>>> endpoint_value("CCOC(=S)[S][Pt][S]C(=S)OCC")
58
>>> endpoint_value("CC(C)OC(=S)[S][Pt][S]C(=S)OC(C)C")
10

* * *

Test system: SK-MEL-25
Assay procedure: Cytotoxicity on human cancer cells in tissue culture, crystal violet staining
Format: cell-based
Recorded conditions: SK-MEL-25, pH 7.4, 2 h incubation, mean of four assays
pIC50: −log10 of the molar value.
Quantity measured: pIC50

>>> endpoint_value("CC(C)OC(=S)[S][Pt][S]C(=S)OC(C)C")
4.92
>>> endpoint_value("N.N.[Cl][Pt][Cl] [Cisplatin, cis-dichloro-diammine-platinum(II)]")
4.05
>>> endpoint_value("CCOC(=S)[S][Pt][S]C(=S)OCC")
4.25

* * *

Test system: LXF-289
Assay procedure: Cytotoxicity on human cancer cells in tissue culture, crystal violet staining
Assay type: cell-based
Recorded conditions: LXF-289, pH 6.8, 2 h incubation, mean of four assays
pIC50: −log10 of the molar value.
Measured pIC50, listed per entry.
Quantity measured: pIC50

>>> endpoint_value("N.N.[Cl][Pt][Cl] [Cisplatin, cis-dichloro-diammine-platinum(II)]")
3.95
>>> endpoint_value("CC(C)OC(=S)[S][Pt][S]C(=S)OC(C)C")
5.00
>>> endpoint_value("CCOC(=S)[S][Pt][S]C(=S)OCC")
4.35
